Reported EC50 values for the following compounds.
Test system: phospho-ERK in melanoma derived WM-266-4 cells
Procedure summary: Mechanistic cellular assay for Raf kinase activity (phospho-ERK, Bio-Plex)
Format: cell-based
Assay setup: Homo sapiens, treated 1-2 hr at 37° C., serum free medium, read-out: pERK EC50

Lookup result for CC(NC(=O)c1cc2c(cn1)ncn2C)c1cnc(Nc2ccc(C(F)(F)F)cc2N(C)C)s1 (centres unmarked) ; measured EC50: 100 to 1000 nM

Lookup result for `C[C@@H](NC(=O)c1cc2c(cn1)ncn2C)c1ncc(C(=O)Nc2cc(C(F)(F)F)c(Cl)cn2)s1` ; measured EC50: ≤ 100 nM

Lookup result for CC(NC(=O)c1cc2cn[nH]c2cn1)c1cnc(Nc2ccc(C(F)(F)F)cc2)s1 (centres unmarked) ; measured EC50: 1000 to 10000 nM

Further cases:
Lookup result for CC(NC(=O)c1cc2c(cn1)ncn2C)c1cnc(Nc2ccc(C(F)(F)F)nc2)s1 (centres unmarked) ; measured EC50: 100 to 1000 nM

Lookup result for CC(NC(=O)c1ncc2ncn(C)c2n1)c1cnc(Nc2ccc(C(F)(F)F)cc2)s1 (centres unmarked) ; measured EC50: 100 to 1000 nM
